assay_protocol: Aqueous solubility: concentration limit of apparently clear solution ([C]max) by visual observation
Format: physicochemical
experimental_context: deionized water, room temperature of about 25 °C, visual observation
Catalogue of solubility at 30 min readings, one per entry.

Answered cases to consult:
molecule	solubility at 30 min
CCCCCCCCCCCCOC(=O)[C@H]1O[C@H](OC)[C@H](O)[C@@H](O)[C@@H]1O [3f]	≥ 30 µM
CCCCCCOC(=O)[C@H]1O[C@H](OC)[C@H](O)[C@@H](O)[C@@H]1O [3c, Hexyl (methyl α-D-glucopyranosid)uronate]	≥ 50000 µM
CCCCCCCCOC(=O)[C@H]1O[C@H](OC)[C@H](O)[C@@H](O)[C@@H]1O [3d, Octyl (methyl α-D-glucopyranosid)uronate]	≥ 20000 µM
CCCCCCCCOC(=O)C1OC(OC)C(O)C(O)C1O [compound 7, Octyl (methyl α-D-mannopyranosid)uronate]	≥ 5000 µM

Q: I am curious: what solubility at 30 min value has been reported for CCCCCCCCCCOC(=O)[C@H]1O[C@H](OC)[C@H](O)[C@@H](O)[C@@H]1O [3e, Decyl (methyl α-D-glucopyranosid)uronate] ?
Ans: 500 to 750 µM

====

assay_protocol: Equilibrium surface tension at the air-aqueous solution interface (Wilhelmy plate)
Format: physicochemical
experimental_context: water, 25 °C
value_kind: γcmc (surface tension at the CMC) (mN·m^−1)

molecule	γcmc (surface tension at the CMC), mN·m^−1
CCCCCCCCCCOC(=O)[C@H]1O[C@H](OC)[C@H](O)[C@@H](O)[C@@H]1O [3e, Decyl (methyl α-D-glucopyranosid)uronate]	28.1
CCCCCCCCOC(=O)C1OC(OC)C(O)C(O)C1O [compound 7, Octyl (methyl α-D-mannopyranosid)uronate]	28.3
CCCCCCOC(=O)[C@H]1O[C@H](OC)[C@H](O)[C@@H](O)[C@@H]1O [3c, Hexyl (methyl α-D-glucopyranosid)uronate]	30.8
CCCCCCCCCCCCOC(=O)[C@H]1O[C@H](OC)[C@H](O)[C@@H](O)[C@@H]1O [3f]	28.3
CCCCCCCCOC(=O)[C@H]1O[C@H](OC)[C@H](O)[C@@H](O)[C@@H]1O [3d, Octyl (methyl α-D-glucopyranosid)uronate]	29.2

====

assay_protocol: Krafft temperature (Tk) by differential scanning calorimetry
Type: physicochemical
experimental_context: DSC, aqueous mixture 10% (w/w), heating scan 4 °C to 65 °C, onset of endothermic signal
value_kind: Tk (Krafft Temperature) (°C)

compound	value_kind	value_units	numeric_value
CCCCCCCCOC(=O)[C@H]1O[C@@H](OC)[C@H](O)[C@@H](O)[C@H]1O [compound 5]	Tk (Krafft Temperature)	°C	31
CCCCCCCCCCCCOC(=O)[C@H]1O[C@H](OC)[C@H](O)[C@@H](O)[C@@H]1O [3f]	Tk (Krafft Temperature)	°C	22

====

assay_protocol: Equilibrium surface tension at the air-aqueous solution interface (Wilhelmy plate)
Assay type: physicochemical
experimental_context: water, 25 °C; calculated from Gibbs equation
value_kind: Amin (minimal area per molecule at air-aqueous solution interface) (Å^2/molecule)

compound	numeric_value
CCCCCCCCOC(=O)[C@H]1O[C@H](OC)[C@H](O)[C@@H](O)[C@@H]1O [3d, Octyl (methyl α-D-glucopyranosid)uronate]	41.0
CCCCCCOC(=O)[C@H]1O[C@H](OC)[C@H](O)[C@@H](O)[C@@H]1O [3c, Hexyl (methyl α-D-glucopyranosid)uronate]	39.2
CCCCCCCCOC(=O)C1OC(OC)C(O)C(O)C1O [compound 7, Octyl (methyl α-D-mannopyranosid)uronate]	42.8
CCCCCCCCCCOC(=O)[C@H]1O[C@H](OC)[C@H](O)[C@@H](O)[C@@H]1O [3e, Decyl (methyl α-D-glucopyranosid)uronate]	42.4
CCCCCCCCCCCCOC(=O)[C@H]1O[C@H](OC)[C@H](O)[C@@H](O)[C@@H]1O [3f]	45.6
